# Test system: LOX IMVI melanoma
# Measurement Protocol: NCI-60 one-dose screen, 48 h
# Condition Context: 10 µM unless noted
Compounds without any hit were thinned out: in the full panel of roughly 83,000, 20% have a hit. The source made the active and inactive calls. How the source made its calls: active means growth percent below 10; inactive means the rest.
// classify into yes (active), no (inactive)

For orientation, consider the following solved cases.
Test Smiles	Label
CN1CCN(c2nc(-c3cccc4ccccc34)nc3sc4c(c23)CCCCCC4)CC1	no
COC(c1ccccc1)(c1ccccc1)c1ccccc1	no
CCCCN1CCCCn2c1nc1c2c(=O)n(C)c(=O)n1C	no
C=C1C(=O)O[C@H]2[C@H]1CC/C(Cn1cc(-c3ccc(F)cc3)nn1)=C\CC[C@@]1(C)O[C@@H]21	yes
COc1cc(/C=C/c2cc(/C=C/c3ccc(O)c(OC)c3)n(-c3ccc(Cl)cc3)c(=O)n2)ccc1O	no
COc1cc(-c2nc(-c3ccccc3)c(-c3ccccc3)[nH]2)cc(OC)c1O	yes
COc1ccc2c(c1)c(-c1nc(-c3c[nH]c4ncccc34)cs1)cn2CCN	no
Fc1ccc(Nc2nc(Nc3ccc(-c4nc5ccccc5[nH]4)cc3)nc(N3CCCC3)n2)cc1	yes

Attention now turns to another entry.
Problem: Which outcome was entered for the molecule `COc1cc(/C=N/Nc2ncnc3c2c(C)nn3-c2ccc(F)cc2)ccc1O` in this test?
Solution: no

---

# Tested on: SW-620 colon
# Measurement Protocol: NCI-60 one-dose screen, 48 h (100 = growth as untreated, 0 = no growth, -100 = all killed)
# Condition Context: 10 µM unless noted
About 83,000 compounds went through this panel and 20% of them were active in at least one assay; those are over-represented in the sample as a whole.
With a cut-off of 60%, any growth strictly below it is called Criterion met; any growth meeting it or above is called Criterion not met.

Test Smiles	Assayed System	Label
CCOc1ccc(NC(=O)c2ccccc2-c2ccccc2C(=O)O)cc1	SW-620 colon	Criterion not met
O=C1C(Cl)=C(Nc2ccc(S(=O)(=O)c3ccc(NC4=C(Cl)C(=O)c5ccccc5C4=O)cc3)cc2)C(=O)c2ccccc21	SW-620 colon	Criterion met
O=C1c2ccccc2C(=Cc2ccccc2)c2ccccc21	SW-620 colon	Criterion met

Problem: State whether 60% exceeds growth recorded for `Nc1c(Cl)cc(N=Nc2ccccc2)cc1Cl` .
Solution: Criterion not met

---

# Tested on: SNB-75 CNS
# Measurement Protocol: NCI-60 one-dose screen, 48 h
# Condition Context: 10 µM unless noted
Compounds without any hit were thinned out: in the full panel of roughly 83,000, 20% have a hit. Calls of active or inactive are those of the source. The calls were made as follows: active = growth percent below 10; inactive = the rest.
The categories you may choose from are t for active, f for inactive

Compound	Label
CCN1CCN(C(=O)[C@]23CCC(C)(C)C[C@@H]2C2=CC[C@@H]4[C@@]5(C)C/C(=C/c6ccncc6)C(=O)C(C)(C)[C@@H]5CC[C@@]4(C)[C@]2(C)CC3)CC1	f
O=C(/C=C/c1ccc2ccccc2c1)Nc1ncc(Cc2ccccc2)s1	f
Cn1c(=O)c2c(nc(Br)n2CC(=O)Nc2ccc(F)cc2)n(C)c1=O	f

Problem: Which result was noted for this compound in the test: `N#CCCCCCn1c2ccccc2c2c3[nH]c(=O)[nH]c(=O)c3c3c4ccccc4n(CCCCCC#N)c3c21`
Solution: f

Problem: Record request — test call for `C=C(C)[C@@H]1CC[C@]2(C)[C@H](CC=C3[C@@H]4CC(C)(C)CC[C@]4(C(=O)OC)CC[C@]32C)[C@@]1(C)CC/C(N)=N/O`
Solution: f

Problem: Look up the recorded call for `CC(C)=CCC[C@](C)(O)[C@H]1CC[C@]2(C)[C@@H]1CC[C@@H]1[C@@]3(C)C/C(=C/c4ccc(Br)cc4)C(=O)C(C)(C)[C@@H]3CC[C@]12C` in this test.
Solution: t

Problem: Please state the recorded outcome for this compound: CC(C)(C)c1[nH]nc2c1C(c1cc3ccccc3[nH]c1=O)Nc1cc(C(=O)OCc3ccccc3)ccc1N2 (stereo not given)
Solution: f

Problem: Please state the recorded outcome for this compound: `C=C(C)[C@@H]1CC[C@]2(C(=O)NNC(=O)c3cccnc3)CC[C@]3(C)[C@H](CC[C@@H]4[C@@]5(C)CCCNC(C)(C)[C@@H]5CC[C@]43C)[C@@H]12`
Solution: f

Problem: Outcome logged for Nc1nc(Br)nc2c1ncn2C1CC(O)C(CO)O1 (stereo not given) in this assay:
Solution: f

Problem: Identify the outcome logged in this assay for the compound shown: `C=C1CC[C@@H](C(=O)OC)Cc2nc(C)ccc21`
Solution: f

Problem: Hello, I am checking results. What call was entered for O=C1CN(c2ccccc2)C(=O)C1C(=O)Nc1ccc(Cl)c(Cl)c1 (stereo not given) ?
Solution: t

Problem: Dear all, I need the recorded test outcome for `C=C(C)[C@@H]1CC[C@]2(C)[C@H](CC[C@@H]3[C@H]4[C@H]5OC[C@@]4(CCC5(C)C)CC[C@]32C)[C@@]1(C)CCCN` , thank you.
Solution: f

Problem: Could you kindly confirm the outcome this assay logged for O=C1C=C(C(O)c2ccc(O)cc2)C(=O)c2ccccc21 (stereo not given) ?
Solution: f

Problem: Recorded call for `NCCn1cc(-c2nc(-c3c[nH]c4ncccc34)cs2)c2ccccc21` ?
Solution: f

Problem: Outcome logged for COc1ccc(OCC(CO)N2CCN(c3ccccc3)CC2)cc1 (stereo not given) in this assay:
Solution: f

Problem: Per the records of this test, what outcome belongs to `CC1=CC(=O)N(c2cccc3c(N4C(=O)C=C(C)C4=O)cccc23)C1=O` ?
Solution: f

Problem: Hey, what did the test say about `CC(C)(C)c1ccc(OCCCCCCCN2CCNCC2)cc1` ?
Solution: f

Problem: Status in this test for `CC1(C)C(=O)/C(=C\c2cccnc2)C[C@]2(C)[C@H]3CC[C@@H]4[C@@H](C(=O)/C=C/c5ccncc5)CC[C@@]4(C)[C@]3(C)CC[C@@H]12` ?
Solution: f

Problem: Which outcome did this test record for the compound `COc1ccc2[nH]cc(-c3nc(-c4c[nH]c5ncccc45)cs3)c2c1` ?
Solution: f

Problem: Outcome logged for `Cc1cc(Nc2ccc(F)cc2)nc(N2CCN(c3ccnc4cc(Cl)ccc34)CC2)n1` in this assay:
Solution: f

---

# Test system: MDA-MB-435 melanoma
# Measurement Protocol: NCI-60 one-dose screen, 48 h
# Condition Context: 10 µM unless noted
# Experimental: Growth inhibition of the MDA-MB-435 human Melanoma tumor cell line is measured as a screen for anti-cancer activity. Cells are grown in 96 well plates and exposed to the test compound for 48 hours. Compounds are tested at a single concentration, which is 10^-5 M for most compounds. The reported endpoint is percent growth (GI% or GIPRCNT), where numbers from 0 - 100% represent growth inhibition, and numbers from -100% - 0 represent cell death. […]
This is part of a sample that, as a whole, favours compounds with a hit. Of some 83,000 tested, about 20% had one in any assay. Calls of active or inactive are those of the source. How the source made its calls: active means growth percent below 10; inactive means the rest.
// one of True (active), False (inactive), no free text

Solved entries (count: 3):
Compound	Label
CCCCCCCC(=O)SCC/C=C/[C@@H]1CC(=O)NCc2cccc(n2)CN(Cc2ccc3ccccc3c2)CC(=O)N[C@@H](C(C)C)C(=O)O1	False
c1ccc2c(-c3nc(-c4c[nH]c5ncccc45)cs3)c[nH]c2c1	False
COC(=O)C(Cc1ccccc1)n1cc(COc2nc(Cl)nc(Nc3ccc(Cl)cc3)n2)nn1 (stereo unspecified)	False

Problem: Answer briefly: the call reported for `C[C@@H](C(=O)O)c1ccc2c3cc(Cl)ccc3n(Cc3cc(=O)oc4ccc(Cl)cc34)c2c1` in this assay.
Solution: False

Problem: Which outcome did this test record for the compound `Cn1c(=O)c2c(nc(N3CCCC3)n2C)n(C)c1=O` ?
Solution: False

Problem: Each compound tested received a call. Report the one for `C=C(C)[C@@H]1CC[C@]2(C)[C@H](CC=C3[C@@H]4CC(C)(C)CC[C@]4(C(=O)OC)CC[C@]32C)[C@@]1(C)CC/C(N)=N/O` .
Solution: False

Problem: What call does the record list for `COc1cccc(-c2nn(-c3ccccc3)cc2-c2ccnc(NCCCN)c2)c1` ?
Solution: True

Problem: State the result this test recorded for `COc1ccc(-c2nc3c(c(C)nn3-c3ccc(F)cc3)c(=O)[nH]2)cc1` .
Solution: False

Problem: For O=C1CCN2C(=O)Nc3ccccc3C2C1 (stereo unspecified) , which call appears in the assay record?
Solution: False

Problem: Field: outcome | Entry: `COc1cccc(NC(=O)c2sc3nc4c(cc3c2N)C(=O)CCC4)c1`
Solution: True

---

Below, each entry is listed alongside its reported growth.
# System: SK-MEL-28 melanoma
# Measurement Protocol: NCI-60 one-dose screen, 48 h (100 = growth as untreated, 0 = no growth, -100 = all killed)
# Condition Context: 10 µM unless noted
About 83,000 compounds went through this panel and 20% of them were active in at least one assay; those are over-represented in the sample as a whole.
Please state the figure in %; there is no need to write the unit.

Test Smiles	Assayed System	Endpoint Label	Test Result
COc1cc2c(cc1OC)C(=O)/C(=C/c1cc(-c3ccc4c(c3)OCO4)n[nH]1)C2	SK-MEL-28 melanoma	growth	0.563
Cc1cc(N2CCCCC2)nc(N(CCCNc2ccnc3cc(Cl)ccc23)Cc2ccco2)n1	SK-MEL-28 melanoma	growth	-23.5
COc1ccc2c(c1)c(-c1nc(-c3cn(C)c4ncccc34)cs1)cn2CCCN1CCCCC1	SK-MEL-28 melanoma	growth	-77.5

Problem: Dear colleague, I am looking for the recorded growth of the following molecule: `N=c1c(S(=O)(=O)c2ccccc2)cc2c(=O)n3ccccc3nc2n1C1CCCC1`
Solution: 102
